As shown below, each of these compounds has a reported concentration which led to 10% cytotoxicity value.
tested on: cell lines developed in the project; test: Cytotoxicity (cell viability) testing, LDH release; conditions: highest concentration used on the cell chip
Where a name gives a salt, the structure may show the parent alone.
READOUT KIND: concentration which led to 10% cytotoxicity

[[record]]
compound = "O=[N+]([O-])c1ccc(Cl)c([N+](=O)[O-])c1"
result = "10 µM"

[[record]]
compound = "N=C(N)c1ccc(OCCCCCOc2ccc(C(=N)N)cc2)cc1 [pentamidine, Pentamidine isethionate salt]"
result = "30 µg/mL"

[[record]]
compound = "CO[C@H]1C[C@@H]2CC[C@@H](C)[C@@](O)(O2)C(=O)C(=O)N2CCCC[C@H]2C(=O)O[C@H]([C@H](C)C[C@@H]2CC[C@@H](O)[C@H](OC)C2)CC(=O)[C@H](C)/C=C(\\C)[C@@H](O)[C@@H](OC)C(=O)[C@H](C)C[C@H](C)/C=C/C=C/C=C/1C"
result = "10 µg/mL"

[[record]]
compound = "Cc1ccc(N=C=O)cc1N=C=O [TDI, Tolylene 2,4-diisocyanate]"
result = "500 µM"

